Target system: T1, human melanocortin-5 receptor (hMC5-R) (human, UniProt P33032 1-325)
T1 construct: whole, on cells; membranes prepared from hMC5-R cells were used; also called Melanocortin Receptor 5
T1 sequence (P33032 whole entry): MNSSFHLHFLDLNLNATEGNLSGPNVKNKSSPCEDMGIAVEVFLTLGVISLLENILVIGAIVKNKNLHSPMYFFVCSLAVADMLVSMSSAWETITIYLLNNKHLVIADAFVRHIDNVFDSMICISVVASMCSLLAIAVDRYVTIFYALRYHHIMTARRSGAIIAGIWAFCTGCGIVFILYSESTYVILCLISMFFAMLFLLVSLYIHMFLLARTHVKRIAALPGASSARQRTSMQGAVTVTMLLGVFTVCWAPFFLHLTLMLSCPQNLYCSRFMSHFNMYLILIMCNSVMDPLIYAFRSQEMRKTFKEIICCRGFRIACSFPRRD
Protocol details: 125I-NDP-α-MSH competition, hMC5-R membranes
Square brackets hold non-standard residues; d marks the D form. Ends that are not written are not given here. Nle = CCCC[C@H](N)C(=O)O
The binders listed here are annotated with their % Inhibition at 1 µM.

Please review the following examples before continuing.
Binder	Test result
YVC[Nle]GH[dF]RWDRF-NH2 (bridge (positions not given here); not fully specified (bridges); printed as Tyr-Val-Cys-Nle-Gly-His-D-Phe-Arg-Trp-Asp-Arg-Phe-NH2.; also: oxorhenium(V) N3S1 complex) [metallopeptide 3-11]	92%
YVXGHFRWDRF (Nle 3 (X in letters); D-Phe 6; C-terminal amide, not complexed to Re) [[Nle3, D-Phe6]-γ-MSH parent polypeptide Tyr-Val-Nle-Gly-His-D-Phe-Arg-Trp-Asp-Arg-Phe-NH2]	100%
YV[Nle]CGH[dF]RWDRF-NH2 (also: Re(V)=O N3S1 chelate via V2 N, Nle3 N, Cys4 N and S (ReOCl3(PPh3)2)) [metallopeptide 3-10]	86%

Problem: Provide measured % Inhibition at 1 µM value, entry: YV[Nle]GH[dF]RWCDRF-NH2 (not fully specified (bridges); printed as Tyr-Val-Nle-Gly-His-D-Phe-Arg-Trp-Cys-Asp-Arg-Phe-NH2; also: oxorhenium(V) N3S1 chelate (backbone N of R7, W8, C9 and C9 S)) [metallopeptide 3-4]
Result: 100%

Problem: Provide measured % Inhibition at 1 µM value, entry: YVXGHFRWDRFC (Nle 3 (X in letters); D-Phe 6; C-terminal amide; Re complexed at Cys 12) [metallopeptide 3-1]
Result: 102%
